// data source = PubChem BioAssay

assay.remarks: AML differentiation inducers, ER-HoxA9 marrow cells – cell-based, GFP/MAC1 double positive, flow cytometry, validation set, primary screen (AID 588685);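 note: compound exposure lasts four days before antibody staining and flow analysis; 0% = DMSO wells and 100% = 5 µM fulvestrant positive control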
test.conditions: hits give high values, normalized: vehicle 0, fulvestrant 100
measured.attribute: differentiation response (%)
Just the number in %, nothing appended.

# input What value of measured differentiation response is listed for CC(=O)NC(Cc1c[nH]c2ccccc12)C(=O)N/N=C/c1ccccc1 (stereo not drawn) ?
# output -3.11

# input Any idea what its differentiation response is? The compound is CCOC(=O)C(NC(C)=O)C(O)c1ccc([N+](=O)[O-])cc1 (stereo not drawn)
# output 32.8

# input Query: differentiation response; subject: O[C@H]1COC2C1OC[C@@H]2O (stereo partly drawn)
# output -4.99

# input Using the record for "O=C1CN(O)C=C2N=c3ccccc3=C2N1c1ccc([N+](=O)[O-])cc1" , report its differentiation response.
# output -3.11

# input Query: differentiation response; subject: "Clc1ccc(CCNc2ncnc3nc[nH]c23)cc1"
# output -0.8

# input State the recorded differentiation response for this entry: "C[C@]12CC[C@@H]3c4ccc(O)cc4[C@@H](O)C[C@H]3[C@@H]1CC[C@@H]2O"
# output -3.11

# input # query: differentiation response of entry "CN(C)c1ccc(Nc2c3c4c(cccc4n(C)c2=O)C(=O)c2ccccc2-3)cc1"
# output -9.91

# input Recorded differentiation response of "COC1CCN(C(=O)c2ccc(OC3CCN(Cc4ccccn4)CC3)cc2)CC1" , please.
# output -2.4

# input // differentiation response lookup, key: "Cc1cc(Cl)cc2c1NC(=O)[C@]21[C@@H]2C(=O)N(Cc3ccccc3)C(=O)[C@@H]2[C@@H]2CCCN21"
# output -14.8

# input I would be grateful if you could share the reported differentiation response for "O=C(O)c1ccccc1C(=O)OCCCCOC(=O)c1ccccc1C(=O)O" .
# output 4.15

# input Recorded differentiation response for "Cc1cccc(Nc2ccccc2C(=O)O)c1C" , please?
# output -12.9

# input Entry "Cc1ccc(Nc2ncccc2C(=O)O)cc1C" : reported differentiation response = ?
# output 6.55

# input Query (compound): CC1(C)CC(CC(=O)O)(c2ccc(Cl)cc2)CCO1 (stereo not drawn) ; field requested: differentiation response
# output -3.28

# input Requested field: differentiation response. Item: "O=C(O)c1ccc(N2C(=O)/C(=C\c3ccccc3)N=C2c2ccccc2)cc1"
# output -0.18

# input State the recorded differentiation response for this entry: "COc1cc(NC(=O)COc2ccccc2)c(OC)cc1NC(C)=O"
# output 5.73

# input For "CCCCOC(=O)c1ccc(N)cc1" , what is its reported differentiation response?
# output -7.5

# input Which measured differentiation response value corresponds to CCN(CC)c1ccc(C2=NNC(=O)CC2C)cc1[N+](=O)[O-] (stereo not drawn) ?
# output -4

# input Fill in: differentiation response of "C=CCNc1nc2c(c(=O)n(C)c(=O)n2C)n1CC(=C)C" is ___
# output -1.88

# input Please give the measured differentiation response for this compound: "O=C1CCCC(=O)C1=Cc1c[nH]c2ccccc12"
# output 5.85

# input Quick check: differentiation response of "COc1cc2c(cc1NCc1ccc3c(c1)OCO3)oc1ccccc12" ?
# output 8.19

# input # get_value(readout='differentiation response', item= "Cc1[nH]c2ccccc2c1C(=O)C(=O)NCc1ccco1" )
# output -4

# input differentiation response for CC(=O)N(CCC(Cc1ccccc1)c1ccco1)Cc1ccco1 (stereo not drawn) ?
# output -3.28

# input Can you share its differentiation response? I mean this compound: "C[N+](C)(C)CCOP(=O)([O-])OC[C@H](O)CO"
# output -6.03
